Run description: Acute toxicity (rats), peroral
Condition set: rat, in vivo, po, female rats
Reported metric: LD50 (mg/kg)
Give the value, in units of mg/kg, as a plain number.

Molecule | Observed
CC1(C)CC2(NC(=O)N(CCCN3CCC(O)CC3)C2=O)c2cc(Cl)ccc2O1 (centres unmarked) | 858

As a next step, examine the molecule that follows.
Fill blank: measured LD50 of the molecule CC1(C)CC2(NC(=O)N(CCCN3CCC(O)CC3)C2=O)c2cc(F)ccc2O1 (centres unmarked) is ____.
780

###

Test system: Chloroform-induced arrhythmia
Run description: Chloroform-induced arrhythmia (mice)
Condition set: peroral; mice
Reported metric: Lethal dose

Here's what some known entries look like.
Compound | Lethal dose
CC(C)N(CCN1C(=O)NC2(CC(C)(C)Oc3ccc(F)cc32)C1=O)C(C)C (stereo not drawn) | 200 mg/kg
CN(C)CCN1C(=O)NC2(CC(C)(C)Oc3ccc(F)cc32)C1=O (stereo not drawn) | 400 mg/kg
CC1(C)CC2(NC(=O)N(CCCN3CCC(c4ccccc4)CC3)C2=O)c2cc(F)ccc2O1 (stereo not drawn) | 200 mg/kg

Fill blank: measured Lethal dose of the compound CC1CC2(NC(=O)N(CCCN(C)C)C2=O)c2cc(Cl)ccc2O1 (stereo not drawn) is ____.
50 mg/kg

Now consider CC1(C)CC2(NC(=O)N(CCCN3CCC(O)CC3)C2=O)c2cc(Cl)cc(Cl)c2O1 (stereo not drawn) and answer again.
400 mg/kg

Now consider COC1CCN(CCCN2C(=O)NC3(CC(C)(C)Oc4ccc(F)cc43)C2=O)CC1 (stereo not drawn) and answer again.
400 mg/kg
